FYI, the data here is from PubChem BioAssay (NCI).

test system: SNB-75 CNS; test: NCI tumour cell line growth inhibition, 48 h; in the data active = GI50 below about 0.43 µM; inactive = the rest
Write down one outcome, taken from active, inactive

Observe how each entry below is paired with its result.
- Compound: "O=C(/C=C/c1ccco1)c1ccc(Nc2ccnc3cc(Cl)ccc23)cc1"
  Category label: "inactive"
- Compound: "Cc1cc(C)c2nc(Nc3nc(C)c(C)c(=O)[nH]3)nc(C)c2c1"
  Category label: "inactive"
- Compound: "NS(=O)(=O)OC[C@H]1O[C@@H](n2cnc3c(N[C@H]4CCc5ccccc54)ncnc32)[C@H](O)[C@@H]1O"
  Category label: "active"
- Compound: "N=C(N)c1ccc(-c2ccc(-c3ccco3)o2)cc1"
  Category label: "inactive"
- Compound: "CCCCCCCC(=O)SCC/C=C/[C@@H]1CC(=O)NCc2cccc(n2)CN(Cc2ccc(Cl)cc2)CC(=O)N[C@@H](C(C)C)C(=O)O1"
  Category label: "inactive"
- Compound: "N#CC1=C(N)Oc2c(sc3c(F)cccc23)C1c1ccc(Cl)cc1 (stereo not drawn)"
  Category label: "inactive"
- Compound: "COc1ccc(-c2ccc(/C=N/n3cnn(CN4CCN(C)CC4)c3=S)o2)c([N+](=O)[O-])c1"
  Category label: "inactive"

# evaluate next
Task item: Tell me the recorded outcome of this test for O=C(NCCc1ccccc1)C(c1csc2ccccc12)N(C(=O)CCl)c1ccc(-c2cnco2)cc1 (stereo not drawn) .
Reply: inactive
